Reference source: patent US9428487B2

- Experimental Protocol: Determination of log P values by HPLC on reversed-phase column (formic acid method)
- Assay type: physicochemical
- Experimental Parameters: reversed-phase HPLC column (C 18), pH 3.4, HPLC, reversed-phase C 18, acidic range (pH 3.4), formic acid eluents, 55° C.; read-out: logP (HCOOH)
Quantity: chromatographic logP

>  <Chemical Smiles>
Cc1nc(-c2cccnc2)sc1C(=O)NC1(c2ncccn2)CC1

>  <chromatographic logP>
1.21

$$$$
>  <Chemical Smiles>
Cc1nc(-c2cncc(I)c2)sc1C(=O)NCc1ncccn1

>  <chromatographic logP>
1.87

$$$$
>  <Chemical Smiles>
CSCCN(C)C(=O)c1cnc(-c2cccnc2)s1

>  <chromatographic logP>
1.38

$$$$

Give the measured chromatographic logP of `CN(CCF)C(=O)c1cnc(-c2cccnc2)s1` . 1.17

Look up chromatographic logP for this molecule: `Cc1nc(-c2cncc(F)c2)sc1C(=O)NCc1ncccn1` 1.39

So what's the measured chromatographic logP for this one? `CCOC(=O)c1nnc(-c2cccnc2)s1` 1.41

Need chromatographic logP, item `COCN(Cc1cc(C)on1)C(=O)c1sc(-c2cccnc2)nc1C` 1.71

Need chromatographic logP of `CON(C)C(=O)c1sc(-c2cccnc2)nc1C` , thanks. 1.42

What measured chromatographic logP goes with `Cc1nc(-c2cccnc2)sc1C(=O)NC1(C#N)CC1` ? 1.2

Dear colleague, I am looking for the recorded chromatographic logP of the following molecule: `Cc1nc(-c2cncc(Cl)c2)sc1C(=O)NCc1ncccn1` 1.69

---

- Experimental Protocol: Determination of log P values by HPLC on reversed-phase column (formic acid method)
- Format: physicochemical
- Experimental Parameters: reversed-phase HPLC column (C 18), pH 3.4, HPLC, reversed-phase C 18, acidic range (pH 3.4), formic acid eluents, 55° C.; read-out: logP (HCOOH)
Below, each entry is listed alongside its reported chromatographic logP.
Please give only the number in your answer, with no unit.

>  <Compound>
Cc1nc(-c2cccnc2)sc1C(=O)N(C)CC(F)F

>  <chromatographic logP>
1.48

$$$$
>  <Compound>
Cc1nc(-c2cccnc2)sc1C(=O)NCc1ncc(Cl)cn1

>  <chromatographic logP>
1.45

$$$$
>  <Compound>
CCOC(=O)c1cnc(-c2cccnc2)s1

>  <chromatographic logP>
1.93

$$$$
>  <Compound>
O=C(NCC(F)(F)F)c1cc(-c2cccnc2)n[nH]1

>  <chromatographic logP>
0.72

$$$$
>  <Compound>
Cc1nc(-c2cncc(Cl)c2)sc1C(=O)N(C)C

>  <chromatographic logP>
1.8

$$$$
>  <Compound>
Cc1nc(-c2cccnc2)sc1C(=O)NC(C)(C)C(F)(F)F

>  <chromatographic logP>
2.24

$$$$

Let us examine a further case.
Form field: reported chromatographic logP of `Cn1nc(-c2cccnc2)cc1C(=O)NCC(F)(F)F` 1.04

---

- Experimental Protocol: Determination of log P values by HPLC on reversed-phase column (formic acid method)
- Format: physicochemical
- Experimental Parameters: reversed-phase HPLC column (C 18), pH 3.4, HPLC, reversed-phase C 18, acidic range (pH 3.4), formic acid eluents, 55° C.; read-out: logP (HCOOH)
- Description: 1) Description of Method for Determining the Log P Values (Formic Acid Method) The log P values reported in the table were determined according to EEC-Directive 79/831 Annex V.A8 by HPLC (High Performance Liquid Chromatography) on a reversed-phase column (C 18). […] Eluent A: acetonitrile+1 ml of formic acid/liter. Eluent B: water+0.9 ml of formic acid/liter. Gradient: from 10% eluent A/90% eluent B to 95% eluent A/5% eluent B in 4.25 min […]
Quantity: chromatographic logP
Keep the answer to the number alone.

>  <Compound>
Cc1nc(-c2cccnc2)sc1C(=O)NC1CC(C(F)(F)F)CC(C(F)(F)F)C1 (centres unmarked)

>  <chromatographic logP>
2.95

$$$$
>  <Compound>
Cc1nc(-c2cccnc2)sc1C(=O)NCCF

>  <chromatographic logP>
1.11

$$$$
>  <Compound>
Cc1nc(-c2cccnc2)sc1C(=O)NCC(F)(F)Br

>  <chromatographic logP>
1.98

$$$$
>  <Compound>
Cc1nc(-c2cccnc2)sc1C(=O)NCc1ccc(Cl)nc1

>  <chromatographic logP>
1.71

$$$$
>  <Compound>
Cc1nc(-c2cncc(Cl)c2)sc1C(=O)NCC(F)(F)F

>  <chromatographic logP>
2.5

$$$$
>  <Compound>
Cc1nc(-c2cccnc2)sc1C(=O)NC(C)c1ccccn1 (centres unmarked)

>  <chromatographic logP>
1.1

$$$$
>  <Compound>
Cc1nc(-c2cccnc2)sc1C(=O)NCC1CCCCO1 (centres unmarked)

>  <chromatographic logP>
1.64

$$$$
>  <Compound>
Cc1nc(-c2cccnc2)sc1C(=O)NC(C)C(F)(F)F (centres unmarked)

>  <chromatographic logP>
1.89

$$$$

Proceeding to the next compound to report its chromatographic logP.
What value of chromatographic logP has been reported for the following compound? `Cc1nc(-c2cncc(I)c2)sc1C(=O)NCC(F)(F)F` 2.75
